The entries below come with measured melting point values attached.

# COMPOUND, melting point
records = [
    ("CCCCCc1cc(CC(=O)[O-])ccc1O.[Na+] [Compound IX]", "193 to 197 °C"),
    ("CCCCCCCCC(Oc1ccc(C(=O)CCC)cc1)C(=O)[O-].[Na+] (racemic) [Compound XXV]", "262 to 278 °C"),
    ("CCCCCCCCC(Oc1ccc(C(=O)CCCCC)cc1)C(=O)[O-].[Na+] (racemic) [Compound XXVI]", "275 to 280 °C"),
]

Which melting point reading was recorded for the compound CCCCCCCC(=O)c1ccc(OC(CCCCCC)C(=O)[O-])cc1.[Na+] (racemic) [Compound XXIV] ?
165 to 170 °C

Requested field: melting point. Item: CCCCOc1ccc(C(CC(=O)[O-])c2cccc(F)c2)cc1.[Na+] (centres unmarked)
135 °C

###

- System: IL-12 production
- TEST PROTOCOL: IL-12 production in LPS-stimulated RAW264.7 cells (ELISA)
- Assay type: cell-based
- MEASUREMENT CONDITIONS: compound 0.5 mM; 100 ng/mL LPS, 21 h
QUANTITY MEASURED: IL-12 (pg/mL)
Numbers only here, please. The scale is pg/mL.

# COMPOUND, QUANTITY MEASURED, REPORTED VALUE
records = [
    ("O=C([O-])CCc1ccc(NCc2cccc(Oc3ccccc3)c2)cc1.[Na+] [Compound XV]", "IL-12", 37),
]

Looking for the measured IL-12 of CCCCc1cccc(CCC(=O)[O-])c1.[Na+] [Compound III] , can you help?
62

Would you kindly share the measured IL-12 for CCCC/C=C/c1cccc(CC(=O)[O-])c1.[Na+] [Compound VI] ?
53

What value of measured IL-12 is listed for CCCCCCCC(=O)c1cccc(C(=O)[O-])c1.[Na+] [Compound XVIII, Sodium 3-octanoylbenzoate] ?
1099

// returns reported IL-12 for input CCC/C=C/c1cccc(CC(=O)[O-])c1.[Na+] [Compound IV]
19

Fill in the blank: the reported IL-12 of CCCCCc1cccc(CCC(=O)[O-])c1.[Na+] [Compound II] is ____.
351

###

// reported IL-12 per item
- Tested on: IL-12 production
- TEST PROTOCOL: IL-12 production in LPS-stimulated RAW264.7 cells (ELISA)
- Assay type: cell-based
- MEASUREMENT CONDITIONS: compound 0.5 mM; 100 ng/mL LPS, 21 h
Write the value in pg/mL as a bare number.

Consider the reported IL-12 for these molecules:
# MOLECULE, ASSAY TARGET, REPORTED VALUE
rows = [
    ("CCCCCc1cccc(CC(=O)[O-])c1.[Na+]", "IL-12 production", 54),
    ("CCCCCc1cc(O)cc(CC(=O)[O-])c1.[Na+]", "IL-12 production", 17),
    ("CCCCCCCCCC(=O)[O-].[Na+] [Sodium decanoate]", "IL-12 production", 50),
    ("CCCCCc1ccc(C(=O)[O-])cc1.[Na+] [Compound XI, Sodium salt of 4-pentylbenzoic acid]", "IL-12 production", 78),
]

As a next step, examine the molecule that follows.
What value of IL-12 has been recorded for this entry: CCCCCc1cc(CC(=O)[O-])ccc1O.[Na+]
20
